Record form. Attribute: protein stability index. Fill in for each entry.
B1: HSP90AB1 (parent)
chain: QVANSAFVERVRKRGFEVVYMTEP

- Variants of: B1
- measurement_description: protein stability index of a GFP-peptide fusion (GPS, HEK-293T) (PSI 1-6); higher = more stable;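 note: lentivirally expressed fusions sorted by FACS into six bins by GFP to DsRed ratio, PSI derived from sequencing read proportions per bin multiplied by bin number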
- recorded_conditions: c terminus: a fixed tail appended
Give the figure only, with no unit attached.

Asked: For `R12M` , what is its reported protein stability index?
Given back: 2.01

Asked: # query: protein stability index of entry `T22G`
Given back: 2

Asked: Given the variant `N4K` , what is its reported protein stability index?
Given back: 1.96
